B1: extracellular domain of A. thaliana TDR (residues 30-642) [modified: N-glycosylated at N111, N356, N378, N471 and N525 (one GlcNAc visible on each in the structures); N-glycosylated at N111, N356, N378, N471 and N525 (one … (parent)
chain 1: HEVPSGPNPISN
chain 2: LKFSPQLLSLLSLKTSLSGPPSAFQDWKVPVNGQNDAVWCSWSGVVCDNVTAQVISLDLSHRNLSGRIPIQIRYLSSLLYLNLSGNSLEGSFPTSIFDLTKLTTLDISRNSFDSSFPPGISKLKFLKVFNAFSNNFEGLLPSDVSRLRFLEELNFGGSYFEGEIPAAYGGLQRLKFIHLAGNVLGGKLPPRLGLLTELQHMEIGYNHFNGNIPSEFALLSNLKYFDVSNCSLSGSLPQELGNLSNLETLFLFQNGFTGEIPESYSNLKSLKLLDFSSNQLSGSIPSGFSTLKNLTWLSLISNNLSGEVPEGIGELPELTTLFLWNNNFTGVLPHKLGSNGKLETMDVSNNSFTGTIPSSLCHGNKLYKLILFSNMFEGELPKSLTRCESLWRFRSQNNRLNGTIPIGFGSLRNLTFVDLSNNRFTDQIPADFATAPVLQYLNLSTNFFHRKLPENIWKAPNLQIFSASFSNLIGEIPNYVGCKSFYRIELQGNSLNGTIPWDIGHCEKLLCLNLSQNHLNGIIPWEISTLPSIADVDLSHNLLTGTIPSDFGSSKTITTFNVSYNQLIGPIPSGSFAHLNPSFFSSNEGLCGDLVGKPCNSDRFNAGNADIDG

Variants of: B1
Test: ITC
Settings: with Tracheary Element Differentiation Inhibitory Factor (TDIF) peptide [modified: hydroxyproline at 4 and 7, parent: 103 nM
pKd: −log10 of the molar value.
Use 6 as the dividing line for pKd, with the line itself on the yes side and lower values as no.

See these solved cases before continuing.
# SEQUENCE_CHANGE, ANSWER_LABEL
data = [
    ("chain 2 F250A", "yes"),
    ("chain 2 R392A R394A", "yes"),
    ("chain 2 Y205A", "no"),
    ("chain 2 S276A", "yes"),
]

Task: Is pKd at least 6? Consider chain 2 R109A F132A S133A S158A Y159A
Result: no
